Origin of values: the supplement of paper PMC6992640

System: HCI13 (cells of an ER-positive luminal breast cancer xenograft)
Assay: cell viability (% of vehicle); higher = less cytotoxic;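 note: PDX cells carrying CMV promoter-driven luciferase, viability read as total photon flux per second by IVIS imaging following D-luciferin, vehicle control 0.1% DMSO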
Conditions: 10 µM; 72 h
Lab note: cut-off is 100. Strictly less in cell viability is y. Exactly 100 or more is n.

compound	assigned category
CN1CCN(CCCN2c3ccccc3Sc3ccc(C(F)(F)F)cc32)CC1.Cl.Cl [Trifluoperazine 2HCl]	y
CC(=O)O.C[C@H](N)C(=O)O.NCCCC[C@H](N)C(=O)O.N[C@@H](CCC(=O)O)C(=O)O.N[C@@H](Cc1ccc(O)cc1)C(=O)O [glatiramer acetate]	n
CCCCCCOC(=O)N=C(N)c1ccc(NCc2nc3cc(C(=O)N(CCC(=O)OCC)c4ccccn4)ccc3n2C)cc1	n
Cn1c(=O)c2[nH]cnc2n(C)c1=O [Theophylline]	y
CCCc1ncc(C[n+]2ccccc2C)c(N)n1.Cl.[Cl-] [Amprolium HCl]	n
O=S(=O)([O-])CCS.[Na+] [Mesna]	n
CC(OC1OCCN(Cc2nc(=O)n(P(=O)(O)O)[nH]2)C1c1ccc(F)cc1)c1cc(C(F)(F)F)cc(C(F)(F)F)c1.CNCC(O)C(O)C(O)C(O)CO.CNCC(O)C(O)C(O)C(O)CO (stereo not given) [Fosaprepitant dimeglumine salt]	y
CC(C(=O)[O-])c1cccc(Oc2ccccc2)c1.CC(C(=O)[O-])c1cccc(Oc2ccccc2)c1.[Ca+2] (stereo not given) [Fenoprofen Calcium]	n
c1coc(CNc2ncnc3nc[nH]c23)c1 [Kinetin]	n
O=c1[nH]c(=O)n(C2CC(O)C(CO)O2)cc1C(F)(F)F (stereo not given) [Triflurdine (Viroptic)]	n
CCCCc1ncc(C=C(Cc2cccs2)C(=O)O)n1Cc1ccc(C(=O)O)cc1.CS(=O)(=O)O [Eprosartan Mesylate]	n
CC1CCOC2Cn3cc(C(=O)NCc4ccc(F)cc4F)c(=O)c(O)c3C(=O)N12 (stereo not given)	y
COc1cc(NC(C)CCCN)c2ncccc2c1.O=P(O)(O)O.O=P(O)(O)O (stereo not given) [Primaquine Diphosphate]	y

---

Test system: WHIM2 (cells of a triple-negative basal-like breast cancer xenograft)
Assay: cell viability (% of vehicle); higher = less cytotoxic
Settings: 10 µM; 72 h
Lab note: cut-off is 100. Strictly less in cell viability is TRUE. Exactly 100 or more is FALSE.

molecule	assigned category
Nc1ccn(C2OC(CO)C(O)C2O)c(=O)n1 (configuration not stated) [Cytarabine]	TRUE
N#CC1CCCN1C(=O)CNC12CC3CC(CC(O)(C3)C1)C2 (configuration not stated) [Vildagliptin (LAF-237)]	FALSE
COC(=O)NC(C(=O)NC(Cc1ccccc1)C(O)CN(Cc1ccc(-c2ccccn2)cc1)NC(=O)C(NC(=O)OC)C(C)(C)C)C(C)(C)C (configuration not stated) [Atazanavir]	TRUE
CC12CCC(O)CC1=CCC1C2CCC2(C)C(c3cccnc3)=CCC12 (configuration not stated) [Abiraterone]	FALSE
Cc1cccc(CN2CCN(C(c3ccccc3)c3ccc(Cl)cc3)CC2)c1.Cl.Cl (configuration not stated) [Meclizine 2HCl]	TRUE
CC12CCC3c4ccc(OC(=O)c5ccccc5)cc4CCC3C1CCC2O (configuration not stated) [Estradiol Benzoate]	FALSE
C[N+](C)(C)CCO.[Cl-] [Choline Chloride]	FALSE
CC1=C(CC(=O)O)c2cc(F)ccc2C1=Cc1ccc(S(C)=O)cc1 (configuration not stated) [Sulindac]	TRUE
N#Cc1ccc(C(c2ccc(C#N)cc2)n2cncn2)cc1 [Letrozole]	TRUE
CC1c2cccc(O)c2C(O)=C2C(=O)C3(O)C(O)=C(C(N)=O)C(=O)C(N(C)C)C3C(O)C21.Cl (configuration not stated) [Doxycycline HCl]	FALSE
Oc1ccc(OC2CCCCO2)cc1 (configuration not stated) [Deoxyarbutin]	FALSE
C=CCc1cc(OC)c(O)c(C(=O)NCCO)c1 [Alibendol]	FALSE
Brc1c(NC2=NCCN2)ccc2nccnc12.O=C(O)C(O)C(O)C(=O)O [Brimonidine Tartrate]	FALSE
C=C(c1ccc(C(=O)O)cc1)c1cc2c(cc1C)C(C)(C)CCC2(C)C [Bexarotene]	TRUE
